- System: Torsin-1A (Homo sapiens)
- Assay Notes: TOR1A wild-type binding on microarray – cell lysate, small-molecule microarray, lysate, 635/667 nm, primary screen (AID 1149)
- Applied Conditions: COS7 hTOR1A-WT lysate, 635 nm fluorescence, higher = more signal
Attribute Measured: composite z-score

These solved cases illustrate the format of a correct answer.
[
  {
    "Compound": "COc1cc(NN2C(C(O)c3cc(OC)c(OC)c(OC)c3)C=CC3C(=O)N(C)C(=O)C32)cc(OC)c1OC (stereo not given)",
    "composite z-score": 0.434
  },
  {
    "Compound": "COC(=O)c1c(CC[C@@H](CO)NC(=O)N2CCC[C@H]2Cn2cc(C3(O)CCCCC3)nn2)oc(C(C)=O)c1C(=O)OC",
    "composite z-score": 0.666
  },
  {
    "Compound": "NCCCCCCNC(=O)[C@@H]1C[C@@H]2C(=O)N[C@@H](CCCCN)C(=O)N2[C@@H]1c1ccc(O)cc1",
    "composite z-score": 0.822
  },
  {
    "Compound": "CCCCC(CC)C(O)C1C=CC2C(=O)N(C)C(=O)C2N1Nc1ccccc1 (stereo not given)",
    "composite z-score": -0.111
  }
]

As a next step, examine the compound that follows.
(Q) Provide composite z-score value for the following compound: N[C@@H](Cc1ccccc1)C(=O)NCc1cn(Cc2ccccc2)nn1
(A) 1.14

----------
Provide the recorded composite z-score for the entries that follow.
- System: Left-right determination factor 2 (Homo sapiens)
- Assay Notes: small molecules binding LEFTY2 protein – biochemical, small-molecule microarray, 635 nm fluorescence scan, primary screen (AID 1110)
- Applied Conditions: higher = more signal
Answers are plain numbers.

[
  {
    "Compound": "COc1ccc(C(=O)Nc2ccc(CN3C(=O)[C@]4(O[C@H](CC(=O)N5Cc6ccccc6C[C@H]5CO)[C@@H]([Si](C)(C)c5ccc(OC)cc5)[C@@H]4C)c4ccccc43)cc2)cc1",
    "System": "Left-right determination factor 2 (Homo sapiens)",
    "composite z-score": 0.575
  }
]

Hey, can you go through the list below and give me composite z-score for every item?
1. O=C(NCCN1CCOCC1)[C@@H]1c2ccccc2C(=O)N(C2Cc3ccccc3C2)[C@H]1c1ccc(CO)cc1
2. C=CC[C@]1(C(=O)N2CCOCC2)COC(c2ccc(OCCCO)cc2)=N1
3. CCCCN1CC=CC23O[C@@H]4/C=C\CCC(C)OC(=O)C4[C@H]2C(=O)N(CCCO)[C@@H]3C1=O (stereo not given in full)
4. O=C1C2C=CC(C(O)C3CC=CCC3)N(Nc3ccccc3)C2C(=O)N1c1ccccc1 (stereo not given)
5. CCCC#C[Si](O[C@H](CC)c1cn([C@H](C)c2ccccc2)nn1)(C(C)C)C(C)C
6. O=C1OCCC=C[C@H]2OC34C=CCN(c5ccc6ccccc6c5)C(=O)[C@H]3N(CCCO)C(=O)[C@@H]4C12 (stereo not given in full)

(A)
1: -1.57; 2: -0.233; 3: -0.949; 4: 0.0066; 5: 0.3; 6: -1.31

----------
- Test system: Fibrinogen (Alexa647-labelled)
- Assay Notes: Alexa647-fibrinogen binding to printed small molecules – biochemical, small-molecule microarray, 635/667 nm fluorescence, artefact control for SMM control-protein annotation, profiling panel (AID 1131);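 also: z-score merges 667 nm fluorescence with per-spot signal-to-noise over triplicate slides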
- Applied Conditions: fibrinogen-A647 binding fluorescence, higher = more signal
Attribute Measured: composite z-score
One number for each entry.

Past entries and their recorded results:
[
  {
    "Compound": "Cn1cccc1C(O)C1C=CC2C(=O)N(c3ccccc3)C(=O)C2N1Nc1ccccc1 (configuration not stated)",
    "composite z-score": 0.954
  },
  {
    "Compound": "CCCC[C@@H](O)C1=C(COc2ccccc2)C[C@H]2C(=O)N(Cc3ccccc3)C(=O)[C@H]2[C@H]1CO",
    "composite z-score": 0.832
  },
  {
    "Compound": "COCCOC(=O)N1C(=O)[C@@]2(c3cc(C#CCC(C(=O)OC)C(=O)OC)ccc31)[C@H](c1ccc(OCCO)cc1)N1[C@H](c3ccccc3)[C@H](c3ccccc3)OC(=O)[C@H]1[C@@H]2C(=O)N1CCc2cc(OC)c(OC)cc2C1",
    "composite z-score": 0.889
  },
  {
    "Compound": "CCCC=C(CCC)[C@@H](NC(=O)C(C)(C)C)c1ccc(C(=O)OC)cc1",
    "composite z-score": 0.972
  },
  {
    "Compound": "NC(=O)NCC#Cc1ccc2c(c1)[C@]1(C(=O)N2)[C@H](c2ccccc2OCCO)N2[C@H](c3ccccc3)[C@H](c3ccccc3)OC(=O)[C@H]2[C@@H]1C(=O)O",
    "composite z-score": 0.277
  },
  {
    "Compound": "COc1ccccc1CN1C(=O)c2ccccc2[C@](Cc2ccccc2I)(C(=O)O)[C@@H]1c1ccc(CO)cc1",
    "composite z-score": 0.809
  }
]

Please find the next compound below.
(Q) Write down composite z-score measured for item C=CCC(OC(C)=O)[C@@H]1[C@@H](N(Cc2cccc3ccccc23)C(=O)Cc2ccc(F)cc2)c2cc(OCCCO)ccc2N1C(=O)c1ccc2ccccc2c1 (some centres not stated)
(A) 0.131

----------
For each of the compounds below, state its z-score.
- Assay Notes: budding yeast growth changes without added modifier – OD600, strain BY4716, 24 h, basal condition, primary screen (AID 1173)
- Applied Conditions: S. cerevisiae BY4716 growth, OD600, 24 h; higher = more signal, called active from +8 up or from −8 down
One number for each entry.

[
  {
    "Compound": "CC[C@@H]1C=C(C(=O)O)[C@H](c2ccc(C#N)cc2)N1S(=O)(=O)c1ccc(C)cc1",
    "z-score": 0.965
  },
  {
    "Compound": "C=C[C@@H](CO)N(Cc1ccc(OC)cc1)S(=O)(=O)c1ccc(Br)cc1",
    "z-score": -5.71
  },
  {
    "Compound": "C=CCC(OC(C)=O)[C@@H]1[C@@H](N(Cc2cccc3ccccc23)C(=O)Cc2ccc(F)cc2)c2cc(OCCCO)ccc2N1C(=O)c1ccc2ccccc2c1 (some centres undefined)",
    "z-score": 0.274
  }
]

Okay, next one:
(Q) Determine its reported z-score: C=C(COC)C(=O)CC[C@@H](OC(C)=O)c1cccc(OCCO)c1
(A) 0.823

----------
Kindly supply the reported composite z-score values for the records listed here.
- Assay Notes: small molecules captured by biotinylated probe aFGF2 – biochemical, small-molecule microarray, fluorescence 635/667, stem cell growth factor project, primary screen (AID 1067);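 also: measures binding of biotinylated aFGF2 protein to printed compounds on slides; z-score merges feature fluorescence and signal-to-noise across triplicate slides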
- Applied Conditions: higher = more signal
Numbers only.

These solved cases illustrate the format of a correct answer.
[
  {
    "Molecule": "NCCCCCCNC(=O)[C@@H]1C[C@@H]2C(=O)N[C@@H](CCCCN)C(=O)N2[C@@H]1c1ccc(O)cc1",
    "composite z-score": -0.0313
  },
  {
    "Molecule": "CCOC(=O)[C@@H]1CCCCN1C(=O)C(=O)OC",
    "composite z-score": -0.0593
  },
  {
    "Molecule": "Cc1ccc(S[C@]2(C(=O)NC(C)C)CC(=O)N(Cc3cc(C(F)(F)F)cc(C(F)(F)F)c3)[C@@H]2c2ccc(CO)cc2)cc1",
    "composite z-score": -0.145
  }
]

Required: composite z-score, one value per molecule below.
1. CC1CC/C=C\[C@H]2OC34C=CCN(c5ccc(Cl)cc5)C(=O)[C@H]3N(C(C)CO)C(=O)[C@]4(C)C2C(=O)O1 (stereo not given in full)
2. N[C@@H](Cc1ccccc1)C(=O)NCc1cn(Cc2ccccc2)nn1

(A)
1. -0.143
2. -0.0465

----------
- Assay Notes: binders of probe aHhip on microarray, primary screen, stem cell growth factor project, biochemical, small-molecule microarray, fluorescence 635/667 (AID 1087);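 also: score merges spot fluorescence at 667nm with spot signal to noise ratio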
- Applied Conditions: higher = more signal
Attribute Measured: composite z-score
One number for each entry.

[
  {
    "Compound": "CCOC(=O)C[C@H]1[C@H](OC(=O)Cc2ccc3c(c2)OCO3)[C@@H](NC(=O)c2ccc3ccccc3n2)c2cc(OCCCO)ccc2N1C(=O)c1ccc2ccccc2n1",
    "composite z-score": 0.171
  }
]

Parameters: items (list). Returns: composite z-score for each item.
1. COC(=O)[C@@]1(Cc2ccc(OC)cc2)[C@H]2c3cc(C(=O)N4CCCC4)n(CCc4c[nH]c5ccc(O)cc45)c3C[C@H]2CN1C(=O)c1ccccc1
2. CC1CC/C=C\[C@H]2OC34C=CCN(c5ccc(Cl)cc5)C(=O)[C@H]3N(C(C)CO)C(=O)[C@]4(C)C2C(=O)O1 (some centres not stated)
3. C=CC[C@@H](OC(=O)Nc1ccc(OC)cc1)c1ccc(O)c(F)c1
4. COc1ccc([Si](C)(C)[C@@H]2[C@@H](CCO)O[C@]3(C(=O)N(Cc4ccccc4)c4ccc(NC(=O)[C@H](C)O)cc43)[C@H]2C)cc1
5. COCCCNC(=O)[C@@]1(CCC(=O)OC(C)(C)C)N=C(c2ccc(OCCCO)cc2)O[C@H]1c1ccccc1N=[N+]=[N-]
6. CC(C)[Si]1(C(C)C)OCc2cc(-c3ccc(-c4ccc(Cl)c(Cl)c4)o3)nc(-c3ccccc3)c21

(A)
1. -0.374
2. -0.0618
3. -0.216
4. 0.162
5. 0.0053
6. -0.134
